TEST CONTEXT: in propylene glycol, 303.2 K
MEASURED ATTRIBUTE: solubility (mole fraction)

CHEMICAL STRUCTURE: O=c1cc(-c2ccc(O)c(O)c2)oc2cc(O)cc(O)c12
VALUE MEASURED: 0.00249

* * *

TEST CONTEXT: in ethyl acetate, 313.2 K

CHEMICAL STRUCTURE: O=c1cc(-c2ccc(O)c(O)c2)oc2cc(O)cc(O)c12
solubility (mole fraction): 0.00438

* * *

TEST CONTEXT: in methanol, 303.2 K

CHEMICAL STRUCTURE: O=c1cc(-c2ccc(O)c(O)c2)oc2cc(O)cc(O)c12
solubility (mole fraction): 0.000537
